# Assay explanation: In vivo PK experiment, plasma and tumor tissue on day 20 of the efficacy experiment
# Parameters: species or system BALB/c mice
# Condition notes: BALB/c, mouse, tumor, oral, 25 mpk, Group 4, 25 mpk + CS1003, time point 1 h; read-out: Tumor drug concentration
Quantity name: concentration at 1 h (µM)
Field: numeric (µM). Do not append units.

query: What concentration at 1 h value was documented for this molecule, Nc1nc(-c2ccc(F)cc2)c(-c2ccc3ncnn3c2)c2nccnc12 [Compound of formula (II-1)] ?
result: 3.48

====

# Assay explanation: In vivo PK experiment, plasma and tumor tissue on day 20 of the efficacy experiment
# Set-up: species or system BALB/c mice
# Condition notes: BALB/c, mouse, tumor, oral, 50 mpk, Group 8, 50 mpk twice a day + CS1003, time point 4 h; read-out: Tumor drug concentration
Quantity name: concentration at 4 h (µM)
Field: numeric (µM). Do not append units.

query: What concentration at 4 h value was documented for this molecule, Nc1nc(-c2ccc(F)cc2)c(-c2ccc3ncnn3c2)c2nccnc12 ?
result: 3.02

====

# Assay explanation: In vivo PK experiment, plasma and tumor tissue on day 20 of the efficacy experiment
# Set-up: species or system BALB/c mice
# Condition notes: BALB/c, mouse, tumor, oral, 100 mpk, Group 6, 100 mpk + CS1003, time point 4 h; read-out: Tumor drug concentration
Quantity name: concentration at 4 h (µM)
Field: numeric (µM). Do not append units.

query: What concentration at 4 h value was documented for this compound, Nc1nc(-c2ccc(F)cc2)c(-c2ccc3ncnn3c2)c2nccnc12 ?
result: 3.03

====

# Assay explanation: In vivo PK experiment, plasma and tumor tissue on day 20 of the efficacy experiment
# Set-up: species or system BALB/c mice
# Condition notes: BALB/c, mouse, tumor, oral, 100 mpk, Group 6, 100 mpk + CS1003, time point 1 h; read-out: Tumor drug concentration
Quantity name: concentration at 1 h (µM)
Field: numeric (µM). Do not append units.

query: What concentration at 1 h value was documented for this compound, Nc1nc(-c2ccc(F)cc2)c(-c2ccc3ncnn3c2)c2nccnc12 [Compound of formula (II-1)] ?
result: 18.7

====

# Assay explanation: In vivo PK experiment, plasma and tumor tissue on day 20 of the efficacy experiment
# Design: species or system BALB/c mice
# Condition notes: BALB/c, mouse, tumor, oral, 50 mpk, Group 5, 50 mpk once a day + CS1003, time point 4 h; read-out: Tumor drug concentration
Quantity name: concentration at 4 h

query: What concentration at 4 h value was documented for this compound, Nc1nc(-c2ccc(F)cc2)c(-c2ccc3ncnn3c2)c2nccnc12 ?
result: 1660 nM

====

# Assay explanation: In vivo PK experiment, plasma and tumor tissue on day 20 of the efficacy experiment
# Design: species or system BALB/c mice
# Condition notes: BALB/c, mouse, tumor, oral, 25 mpk, Group 4, 25 mpk + CS1003, time point 4 h; read-out: Tumor drug concentration
Quantity name: concentration at 4 h (nM)
Field: numeric (nM). Do not append units.

query: What concentration at 4 h value was documented for this compound, Nc1nc(-c2ccc(F)cc2)c(-c2ccc3ncnn3c2)c2nccnc12 ?
result: 925
